The following molecules are shown together with reported Inhibition values.
- Tested on: Candida albicans
- measurement-conditions: Concentration 32 ug.mL-1; ASSAY_TEST Inhibition of Fungal Growth; detection method Absorption (OD530)
- Description: Antifungal activity against Candida albicans ATCC 90028 (CO-ADD:FG_001); MIC in YNB media using NBS plates, by OD630
Entries with a potency or affinity are not part of this list.
Report the value in % with no unit label.

{"smi": "Cc1ccc(Cl)cc1NC(=O)Cn1nc2c(N3CCOCC3)nc3ccccc3n2c1=O", "units-label": "%", "measured-value": 3.17}
{"smi": "CCc1nnc2c(SCC(=O)Nc3cccc(C(C)=O)c3)nc3ccccc3n12", "units-label": "%", "measured-value": -0.1}

# input Supply recorded Inhibition for CC(=O)Nc1ccc(NC(=O)CSc2nc3ccccc3n3cnnc23)cc1 here.
# output 32.46

# input Give the reported Inhibition for this molecule. COc1ccc(CNC(=O)Cn2nc3c4cc(-c5ccc(C)c(C)c5)nn4ccn3c2=O)cc1
# output 11.15

# input Indicate its recorded Inhibition; the molecule in question is CCOC(=O)c1ccccc1NC(=O)Cn1nc2c(Oc3cccc(OC)c3)nccn2c1=O
# output 0.95

* * *

- Tested on: Klebsiella pneumoniae
- measurement-conditions: Concentration 32 ug.mL-1;; ASSAY_TEST Inhibition of Bacterial Growth; detection method Absorption (OD600); MEDIA CAMHB; plate type 384well; NBS; CORNING #3640; time 18 hr
- Description: Antibacterial activity against Klebsiella pneumoniae MDR ATCC 70063 (CO-ADD:GN_003); MIC in CAMBH media using NBS plates, by OD(600)
Results with a measured potency or affinity are listed apart.
Response field label: string, one of Satisfied (Inhibition strictly below 10%) or Not satisfied.

Here's what some known entries look like.
{"smi": "O=C(CSc1nnc2c(=O)n(-c3cccc(F)c3)ccn12)NCCc1ccccc1", "classification": "Satisfied"}
{"smi": "O=C(CSc1nnc2c(=O)n(-c3ccc(F)c(F)c3)ccn12)c1cccc(Cl)c1", "classification": "Not satisfied"}
{"smi": "C=Cc1ccc(CSc2nnc3c(=O)n(-c4ccc(F)cc4)ccn23)cc1", "classification": "Satisfied"}
{"smi": "Cc1cc(C)cc(Oc2nccn3c(=O)n(CC(=O)Nc4ccc(Cl)cc4F)nc23)c1", "classification": "Not satisfied"}

# input Given the entry CCc1ccc(N(Cc2ccc(OC)cc2)S(=O)(=O)c2cccn3c(C)nnc23)cc1 , would its reported Inhibition be below 10%?
# output Satisfied

# input Determine whether this compound shows Inhibition lower than 10% (ties excluded): Cc1ccc(-c2ccc3nnc(CCC(=O)NCc4ccc(C(F)(F)F)cc4)n3n2)cc1C
# output Not satisfied

# input Determine whether this compound shows Inhibition lower than 10% (ties excluded): COc1cccc(CN(c2cc(F)cc(F)c2)S(=O)(=O)c2ccc3nnc(C)n3c2)c1
# output Satisfied

# input Strictly below 10% in Inhibition? COc1ccc(NC(=O)Cn2nc3c(SC4CCCCC4)nccn3c2=O)cc1
# output Not satisfied

# input Lab log: compare recorded Inhibition with 10%; is it strictly lower for CCc1ccc(NC(=O)Cn2nc3c(Oc4cccc(OC)c4)nccn3c2=O)cc1 ?
# output Satisfied

* * *

- Tested on: Klebsiella pneumoniae
- measurement-conditions: Concentration 32 ug.mL-1;; ASSAY_TEST Inhibition of Bacterial Growth; detection method Absorption (OD600); MEDIA CAMHB; plate type 384well; NBS; CORNING #3640; time 18 hr
Results with a measured potency or affinity are listed apart.
We begin with a simple list: items and their reported Inhibition.
Units required after the number.

Known Inhibition results, listed for orientation:
{"smi": "COc1ccc(NC(=O)Cn2nc3c(SCc4ccc(Cl)cc4)nccn3c2=O)cc1OC", "observation-type": "Inhibition", "measured-value": "3.8%"}
{"smi": "NC(=O)Cn1nc2n(CCC(=O)NC3CCCCC3)c(=O)c3ccccc3n2c1=O", "observation-type": "Inhibition", "measured-value": "14.53%"}
{"smi": "CCc1nnc2c(SCC(=O)Nc3cccc(Br)c3)nc3ccccc3n12", "observation-type": "Inhibition", "measured-value": "4.36%"}
{"smi": "COc1ccc(NC(=O)Cn2nc3c(Oc4cccc(OC)c4)nccn3c2=O)cc1", "observation-type": "Inhibition", "measured-value": "3.68%"}
{"smi": "Cc1ccc(NC(=O)Cn2c(=O)c3nnc(C)n3c3ccccc32)cc1F", "observation-type": "Inhibition", "measured-value": "7.95%"}

# input Answer with the recorded Inhibition for the compound listed here: Cc1cc(C)c(NC(=O)CSc2nnc3ccc(C(=O)Nc4cccc(F)c4)cn23)c(C)c1
# output 4.12%

# input Look up Inhibition of COc1cccc(-n2ccn3c(=O)n(Cc4ccc([N+](=O)[O-])cc4)nc3c2=O)c1 and report it.
# output 8.52%

# input Determine from records and report Inhibition for CC(C)c1ccc(Cn2c(=O)c3sccc3n3c(SCc4cccc(C(F)(F)F)c4)nnc23)cc1
# output 5.43%

# input Specify reported Inhibition for the compound shown: COc1ccccc1NC(=O)Cn1nc2n(CCCOC(C)C)c(=O)c3ccccc3n2c1=O
# output 12.77%

# input Dear colleague, please send me the reported Inhibition for Cc1ccccc1Nc1cc(C)n2c(=O)n(CCc3ccccc3)nc2n1 when you can.
# output 8.17%
